# protein stability index values compiled below
B1: EHMT1 (parent)
chain: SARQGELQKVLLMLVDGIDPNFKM

Variants of: B1
Assay: protein stability index of a GFP-peptide fusion (GPS, HEK-293T) (PSI 1-6); higher = more stable;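 further: lentivirally expressed fusions sorted by FACS into six bins by GFP to DsRed ratio, PSI derived from sequencing read proportions per bin multiplied by bin number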
Conditions: c terminus: a fixed tail appended
Note: the reply should be a number with no unit written.

variant_annotation=D19Y numeric_result=2.73
variant_annotation=Q8K numeric_result=1.57
variant_annotation=I18Y numeric_result=2.76
variant_annotation=D16T numeric_result=2.8
variant_annotation=M13F numeric_result=1.83
variant_annotation=L11R numeric_result=2.53
variant_annotation=K9A numeric_result=2.51
variant_annotation=R3I numeric_result=2.15

Let me know recorded protein stability index for K23L , thanks.
1.88
